The reported numbers originate from paper PMC4176381.

# SYSTEM UNDER TEST: CSL (RBPJ) (Mus musculus, UniProt P31266 53-474)
# Sequence (P31266 53-474): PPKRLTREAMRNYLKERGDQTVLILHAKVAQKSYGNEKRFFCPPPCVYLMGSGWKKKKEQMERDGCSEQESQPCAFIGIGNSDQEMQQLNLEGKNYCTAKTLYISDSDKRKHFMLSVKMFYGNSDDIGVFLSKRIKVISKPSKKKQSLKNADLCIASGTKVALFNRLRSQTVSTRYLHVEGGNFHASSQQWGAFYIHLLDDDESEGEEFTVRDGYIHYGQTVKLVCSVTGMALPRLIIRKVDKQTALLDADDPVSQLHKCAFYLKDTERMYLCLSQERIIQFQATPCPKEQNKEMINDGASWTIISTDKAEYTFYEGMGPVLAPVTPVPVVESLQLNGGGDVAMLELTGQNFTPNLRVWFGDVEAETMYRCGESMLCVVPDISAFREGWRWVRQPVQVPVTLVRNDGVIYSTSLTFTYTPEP
# TEST PROTOCOL: ITC; K = 2.0 +/- 0.5 x10^6 M-1; n=3; ITC: 50 mM sodium phosphate pH 6.5, 150 mM NaCl, 10 C (10 uM CSL in cell, 100 uM DNA in syringe). EMSA: 150 mM KCl, 50 mM Tris pH 7.4, 1 mM DTT, 2% polyvinyl alcohol, 30 ng/ul poly(dI-dC), on ice 30 min, 25 fmol biotin probe in 5 ul
# CONDITION DETAILS: protein: recombinant; tags: GST tag cleaved off
PARAMETER: pKd
Please note pKd is a logarithmic value: minus log10 of concentration in mol/L. Answer with that number alone.

Consider ITC duplex TGTGGGAA (dsDNA) DNA 1: GTTACTGTGGGAAAGAAAG DNA 2: CTTTCTTTCCCACAGTAAC . Its measured pKd is 6.30
